Test system: 883617-216-R-J1-PDC complex spheroid viability
experiment-summary: Anticancer human tumor 883617-216-R-J1-PDC patient-derived bladder carcinoma cell line growth inhibition
settings: curve of first compound; second compound 1 µM
Please go through the items and note down their IC50.
Provide only the numeric value, understood in µM.

Task: Consider the molecule shown here: COc1cc(Nc2ncc3c(n2)-c2ccc(Cl)cc2C(c2c(F)cccc2OC)=NC3)ccc1C(=O)O + NC1CCC(NC2CC2c2ccccc2)CC1 What is its recorded IC50?
Output: 0.322

Task: Consider the molecule shown here: NS(=O)(=O)OCC1CC(n2ccc3c(NC4CCc5ccccc54)ncnc32)CC1O (centres undefined) + NC1CC1c1ccc(-c2cccc(O)c2)cc1 What is its recorded IC50?
Output: 0.219

Task: Consider the molecule shown here: COc1cc(Nc2ncc3c(n2)-c2ccc(Cl)cc2C(c2c(F)cccc2OC)=NC3)ccc1C(=O)O + NC1CC1c1ccc(-c2cccc(O)c2)cc1 What is its recorded IC50?
Output: 0.0206

Task: Consider the molecule shown here: CC(C)CC(NC(=O)C(Cc1ccccc1)NC(=O)c1cnccn1)B(O)O (centres undefined) + NC1CC1c1ccc(-c2cccc(O)c2)cc1 What is its recorded IC50?
Output: 0.000949

Task: Consider the molecule shown here: Cn1ncnc1C1c2n[nH]c(=O)c3cc(F)cc(c23)NC1c1ccc(F)cc1 (centres undefined) + NC1CC1c1ccc(-c2cccc(O)c2)cc1 What is its recorded IC50?
Output: 0.0124

Task: Consider the molecule shown here: CC1COCCN1c1cc(-c2ccnn2C)c2ccnc(-c3ccn[nH]3)c2n1 (centres undefined) + NC1CC1c1ccc(-c2cccc(O)c2)cc1 What is its recorded IC50?
Output: 0.00858

Task: Consider the molecule shown here: O=C(C=Cc1cccc(S(=O)(=O)Nc2ccccc2)c1)NO + NC1CC1c1ccc(-c2cccc(O)c2)cc1 What is its recorded IC50?
Output: 0.0698

Task: Consider the molecule shown here: CC1COCCN1c1cc(C2(S(C)(=N)=O)CC2)nc(-c2ccnc3[nH]ccc23)n1 (centres undefined) + NC1CC1c1ccc(-c2cccc(O)c2)cc1 What is its recorded IC50?
Output: 0.501

Task: Consider the molecule shown here: CC(C)CC(NC(=O)CNC(=O)c1cc(Cl)ccc1Cl)B1OC(=O)CC(CC(=O)O)(C(=O)O)O1 (centres undefined) + NC1CC1c1ccc(-c2cccc(O)c2)cc1 What is its recorded IC50?
Output: 0.00266

Task: Consider the molecule shown here: Nc1ncn(C2CC(O)C(CO)S2)c(=O)n1 (centres undefined) + NC1CCC(NC2CC2c2ccccc2)CC1 What is its recorded IC50?
Output: 0.291

Task: Consider the molecule shown here: COc1cc(C2c3cc4c(cc3C(OC3OC5COC(C)OC5C(O)C3O)C3COC(=O)C23)OCO4)cc(OC)c1O (centres undefined) + NC1CC1c1ccc(-c2cccc(O)c2)cc1 What is its recorded IC50?
Output: 0.0928

---

Please go through the items and note down their log10 of IC50.
Tested on: 883617-216-R-J1-PDC complex spheroid viability
experiment-summary: Anticancer human tumor 883617-216-R-J1-PDC cell line growth inhibition;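 further: exposure lasted seven days after three days of spheroid growth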
settings: curve of first compound; second compound 10 µM
Excerpt: Multicellular complex tumor spheroid response to LSD1 Inhibitor Iadademstat in combination with a variety of drugs and investigational agents in selected tumor cell lines The current study was undertaken to assess response to LSD1 inhibitors in combination with standard-of-care drugs and investigational agents in solid tumor complex spheroid models as well as in the K-562 leukemia. […] Compounds. […] If the clinical Cmax for an agent had not been determined, the highest concentration tested was 10 microM. […]
Answers are given as log10 of IC50 in nM.

Task: Consider the molecule shown here: CC1(C)CCC(CN2CCN(c3ccc(C(=O)NS(=O)(=O)c4ccc(NCC5CCOCC5)c([N+](=O)[O-])c4)c(Oc4cnc5[nH]ccc5c4)c3)CC2)=C(c2ccc(Cl)cc2)C1 + NC1CCC(NC2CC2c2ccccc2)CC1 What is its recorded log10 of IC50?
Output: 3.85

Task: Consider the molecule shown here: CC(C)CC(NC(=O)C(Cc1ccccc1)NC(=O)c1cnccn1)B(O)O (stereo not drawn) + NC1CC1c1ccc(-c2cccc(O)c2)cc1 What is its recorded log10 of IC50?
Output: -0.24

Task: Consider the molecule shown here: CC1COCCN1c1cc(-c2ccnn2C)c2ccnc(-c3ccn[nH]3)c2n1 (stereo not drawn) + NC1CC1c1ccc(-c2cccc(O)c2)cc1 What is its recorded log10 of IC50?
Output: 0.57

Task: Consider the molecule shown here: COc1cc(C2c3cc4c(cc3C(OC3OC5COC(C)OC5C(O)C3O)C3COC(=O)C23)OCO4)cc(OC)c1O (stereo not drawn) + NC1CC1c1ccc(-c2cccc(O)c2)cc1 What is its recorded log10 of IC50?
Output: 1.76

Task: Consider the molecule shown here: COc1cc(Nc2ncc3c(n2)-c2ccc(Cl)cc2C(c2c(F)cccc2OC)=NC3)ccc1C(=O)O + NC1CC1c1ccc(-c2cccc(O)c2)cc1 What is its recorded log10 of IC50?
Output: 1.23

Task: Consider the molecule shown here: CC(C)CC(NC(=O)CNC(=O)c1cc(Cl)ccc1Cl)B1OC(=O)CC(CC(=O)O)(C(=O)O)O1 (stereo not drawn) + NC1CC1c1ccc(-c2cccc(O)c2)cc1 What is its recorded log10 of IC50?
Output: 0.27

Task: Consider the molecule shown here: Nc1ccccc1NC(=O)c1ccc(CNC(=O)OCc2cccnc2)cc1 + NC1CC1c1ccc(-c2cccc(O)c2)cc1 What is its recorded log10 of IC50?
Output: 2.01

Task: Consider the molecule shown here: CC1(C)CCC(CN2CCN(c3ccc(C(=O)NS(=O)(=O)c4ccc(NCC5CCOCC5)c([N+](=O)[O-])c4)c(Oc4cnc5[nH]ccc5c4)c3)CC2)=C(c2ccc(Cl)cc2)C1 + NC1CC1c1ccc(-c2cccc(O)c2)cc1 What is its recorded log10 of IC50?
Output: 3.69
